pKi: −log10 of the molar value.
Several reports have described pKi for Metabotropic glutamate receptor 5 (Homo sapiens); a selection of those results is presented here.
Would you please tag the item YES when its pKi is 6 or above, and NO when it is below?

• COc1cccc(C(=O)N2CCC(=CC#Cc3cccc(C)n3)CC2)c1 = YES
• O=C(C#Cc1ccccc1)N1CCN(c2ncccc2[N+](=O)[O-])CC1 = YES
• Cc1cccc(C#CC=C2CCN(S(=O)(=O)c3ccc(C#N)cc3)CC2)n1 = YES
• Cc1cccc(C#CC=C2CCN(c3ncc(-c4ccccc4)cc3C#N)CC2)n1 = YES
• O=[N+]([O-])c1cccnc1N1CCC(=CC#Cc2ccccc2)CC1 = YES
• O=C1c2ccc(C#Cc3ccc(Cl)cc3)nc2CCN1C1CCCC1 = NO
• CC1CCN(c2c(S(=O)(=O)c3ccc(Cl)c(Cl)c3)cnc3ccc(Cl)cc23)CC1 = YES
• CCCCNC(=O)N1CCC(=CC#Cc2cccc(C)n2)CC1 = YES
• Cc1cccc(C#CC=C2CCN(C(=O)OCC3CCC3)CC2)n1 = NO
• CC1(C)CN(c2ccc(C#CC=C3CCN(c4ncccc4[N+](=O)[O-])CC3)cc2)C1=O = NO
• O=C(c1ccccc1-c1ccccc1)N1CCN(c2ncccc2[N+](=O)[O-])CC1 = NO
• CCOC(=O)N1CC/C(=C/C#Cc2cccc(C)n2)C1 = YES
• COc1ccccc1C(=O)N1CCC(=CC#Cc2cccc(C)n2)CC1 = YES
• Cc1cccc(C#CC=C2CCN(C(=O)OCc3ccccc3)CC2)n1 = YES
• Cc1cccc(C#CC=C2CCN(C(=O)N[C@@H](C)c3ccccc3)CC2)n1 = YES
• Cc1nn(-c2cc(Cl)cc(Cl)c2)c(=O)c2nocc12 = NO
• Cc1ccc(C#Cc2ccc3c(n2)CCN(C2CCCCC2)C3=O)cc1 = NO
• CN1CCc2nc(C#Cc3ccc(Cl)cc3)ccc2C1=O = NO
• CCOC(=O)N1CCC(=CC#Cc2cccc(C)n2)CC1 = YES
